# test description: TOR pathway LAP4-GFP level changes – S. cerevisiae, multiplex flow cytometry, MLPCN library, primary screen (AID 2023)
# details: 3 h, at 10 µM
Among all 320,000 compounds or so, about 1,100 (0.34%) were called active. No stated cut-off is given here; in the data, active means GFP response vs DMSO above about 150% (passing the limit was not always enough). Only a selection was taken, and actives are over-represented in it overall.
Outcome codes: true = active, false = inactive

| compound | label class |
| --- | --- |
| O=C1NC(=O)N(Cc2ccco2)C(=O)/C1=C\c1ccc(-c2ccc(F)cc2)o1 | true |
| O=C(Cc1ccccc1)N1CCN(C2CCCCCC2)CC1 | false |
| COc1ccc(C2N3CC(C)(C)CN23)cc1 (stereo not drawn) | false |
| Cc1cccc2c(CCN)c[nH]c12 | false |
| CN(C)C(=O)NC(O)C(Cl)(Cl)Cl (stereo not drawn) | false |
| CNCC[C@H](Oc1ccc(C(F)(F)F)cc1)c1ccccc1 | false |
| COc1ccc(CN2C(=O)NC(=O)/C(=C\c3ccc(OC)c(OC)c3OC)C2=O)cc1 | false |
| COc1cccc(N2C(=O)NC(=O)/C(=C\c3cn(C)c4ccccc34)C2=O)c1 | false |
